Biological target: T1, human glycophorin A in the red blood cell membrane (human, UniProt P02724 20-150)
T1 construct: whole, on cells; used for intact RBC, isolated RBC membranes and transfected cells; the assay field tells which; also called GPA; hGPA
T1 sequence (looked up): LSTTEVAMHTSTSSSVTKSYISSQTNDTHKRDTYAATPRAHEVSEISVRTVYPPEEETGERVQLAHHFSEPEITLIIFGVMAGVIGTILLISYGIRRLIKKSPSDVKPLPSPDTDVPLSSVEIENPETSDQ
Assay: FACS, RBC Hu02
fluorescence intensity vs 300: at or above is yes (1), below is no (0).

Here's what some known entries look like.
# Binder, Assigned Category
data = [
    ("Hu6C12-18 (antibody, V domains shown, IgG format; VH.1a + Vk.1b) VH: EVQLVQSGAEVKKPGASVKVSCKASGYTFTTYTIHWVRQAPGQGLEWMGYINPSSDYTRYNPKFKDRVTMTTDTSTSTAYMELRSLRSDDTAVYYCQRGTRDYWGQGTTVTVSS VL: DIQLTQSPSFLSASVGDRVTITCSAASSVSYIYWFQQKPGKAPKLLIYSTSTLPSGVPSRFSGSGSGTEYTLTISSLQPEDFATYYCHQRNSFPFTFGQGTKLEIK", "no (0)"),
    ("Hu6C12-20 (antibody, V domains shown, IgG format; VH.1c + Vk.1b) VH: EVQLVQSGAEVKKPGASVKVSCKASGYTFTTYTIHWVRQAPGQGLEWMGYINPSSDYTRYNPKFKDRVTMTTDTSTSTAYMELRSLRSDDTAVYYCQTGTRDYWGQGTTVTVSS VL: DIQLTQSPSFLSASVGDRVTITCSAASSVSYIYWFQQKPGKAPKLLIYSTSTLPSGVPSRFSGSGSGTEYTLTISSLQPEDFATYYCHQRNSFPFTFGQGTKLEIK", "yes (1)"),
    ("Hu6C12-23 (antibody, V domains shown, IgG format; VH.1f + Vk.1b) VH: EVQLVQSGAEVKKPGASVKVSCKASGYTFTTYTIHWVRQAPGQGLEWMGYINPSSDYTRYNPKFKDRVTLTTDTSTSTAYMELRSLRSDDTAVYYCQTGTRDYWGQGTTVTVSS VL: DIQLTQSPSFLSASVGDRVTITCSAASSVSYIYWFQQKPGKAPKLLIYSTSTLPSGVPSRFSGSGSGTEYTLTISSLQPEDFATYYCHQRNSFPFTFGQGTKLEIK", "yes (1)"),
    ("Hu6C12-17 (antibody, V domains shown, IgG format; VH.1 + Vk.1b) VH: EVQLVQSGAEVKKPGASVKVSCKASGYTFTTYTIHWVRQAPGQGLEWMGYINPSSDYTRYNPKFKDRVTMTTDTSTSTAYMELRSLRSDDTAVYYCARGTRDYWGQGTTVTVSS VL: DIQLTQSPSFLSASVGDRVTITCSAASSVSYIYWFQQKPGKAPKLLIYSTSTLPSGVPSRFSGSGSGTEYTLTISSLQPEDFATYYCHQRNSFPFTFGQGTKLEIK", "no (0)"),
    ("Hu6C12-6 (antibody, V domains shown, IgG format; VH.1f + Vk.1) VH: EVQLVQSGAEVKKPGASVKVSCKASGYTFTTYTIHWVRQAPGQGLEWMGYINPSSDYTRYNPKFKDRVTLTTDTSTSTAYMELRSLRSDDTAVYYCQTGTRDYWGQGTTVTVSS VL: DIQLTQSPSFLSASVGDRVTITCSAASSVSYIYWYQQKPGKAPKLLIYSTSTLPSGVPSRFSGSGSGTEFTLTISSLQPEDFATYYCHQRNSFPFTFGQGTKLEIK", "yes (1)"),
    ("Hu6C12-11 (antibody, V domains shown, IgG format; VH.1b + Vk.1a) VH: EVQLVQSGAEVKKPGASVKVSCKASGYTFTTYTIHWVRQAPGQGLEWMGYINPSSDYTRYNPKFKDRVTMTTDTSTSTAYMELRSLRSDDTAVYYCATGTRDYWGQGTTVTVSS VL: DIQLTQSPSFLSASVGDRVTITCSAASSVSYIYWYQQKPGKAPKLLIYSTSTLPSGVPSRFSGSGSGTEYTLTISSLQPEDFATYYCHQRNSFPFTFGQGTKLEIK", "yes (1)"),
]

Prompt: Given the entry Hu6C12-9 (antibody, V domains shown, IgG format; VH.1 + Vk.1a) VH: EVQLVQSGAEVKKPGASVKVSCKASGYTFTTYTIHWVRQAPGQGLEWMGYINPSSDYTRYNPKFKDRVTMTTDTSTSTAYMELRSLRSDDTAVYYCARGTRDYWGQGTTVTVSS VL: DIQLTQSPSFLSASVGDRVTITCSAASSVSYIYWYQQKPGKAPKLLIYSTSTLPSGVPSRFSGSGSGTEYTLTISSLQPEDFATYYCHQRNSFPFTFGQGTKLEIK , answer whether its fluorescence intensity meets or surpasses 300.
Completion: no (0)

Prompt: Given the entry 6C12B8/H8 (antibody, V domains shown, mouse IgG1/k from hybridoma; also called 6C12 parental; TPP-3422) VH: RVQLQQSGAELARPGASVKMSCKASGYTFTTYTIHWVKQKTGQGLEWIGYINPSSDYTRYNPKFKDKATLTTDKSSSTAYMKLNSLASDDSAVYYCQTGTRDYWGQGTTLTVSS VL: QIVLTQSPPIMSASPGEKVTMTCSAASSVSYIYWFQQKPGTSPKLWIYSTSTLPSGVPTRFSGSGSGTSYSLTISRMEAEDAATYYCHQRNSFPFTFGSGTKLEIR , answer whether its fluorescence intensity meets or surpasses 300.
Completion: yes (1)

Prompt: Given the entry Hu6C12-2 (antibody, V domains shown, IgG format; VH.1b + Vk.1) VH: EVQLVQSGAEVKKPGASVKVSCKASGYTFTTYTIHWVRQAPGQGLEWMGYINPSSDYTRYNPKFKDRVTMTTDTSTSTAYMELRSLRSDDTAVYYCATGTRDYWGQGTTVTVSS VL: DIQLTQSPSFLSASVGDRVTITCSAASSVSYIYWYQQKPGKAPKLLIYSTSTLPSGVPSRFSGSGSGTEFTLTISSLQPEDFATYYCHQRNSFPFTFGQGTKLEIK , answer whether its fluorescence intensity meets or surpasses 300.
Completion: yes (1)

Prompt: Given the entry Hu6C12-4 (antibody, V domains shown, IgG format; VH.1d + Vk.1) VH: EVQLVQSGAEVKKPGASVKVSCKASGYTFTTYTIHWVRQAPGQGLEWMGYINPSSDYTRYNPKFKDRVTLTTDTSTSTAYMELRSLRSDDTAVYYCQRGTRDYWGQGTTVTVSS VL: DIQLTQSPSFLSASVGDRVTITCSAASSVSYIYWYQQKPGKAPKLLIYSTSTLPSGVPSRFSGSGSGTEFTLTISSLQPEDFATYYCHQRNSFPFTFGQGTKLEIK , answer whether its fluorescence intensity meets or surpasses 300.
Completion: no (0)
